Could you please report measured Percent Effect for the items listed next?
Tested on: Leishmania donovani
protocol-description: Leishmania intramacrophage assay
Format: functional, organism-based
Set-up: scale not given: in the data most compounds retested in dose-response had high values
assay-setup: 30.3 µM; […]
Among all 69,000 compounds or so, about 1,000 (1.4%) showed an effect of 50% or more. Only a selection was taken, and strong results are over-represented in it overall.
One number for each entry, in %.

Cc1noc(C)c1CN(C)C(=O)CCn1c(=O)n(C)c2ccccc21 = 50.75
CCNc1c(C#N)c(=O)n(C)c(=O)n1C = 22.41
Cc1noc([C@]23COC[C@H]2CN(C(=O)Cc2ccsc2)C3)n1 = 57.44
CN(Cc1ccc2c(c1)OCO2)C(=O)c1ccc(C2CCCNC2)cc1 (stereo unspecified) = 4.185
COCCN1CCCC2(CCN(c3ccsc3)C2=O)C1.O=C(O)C(F)(F)F (stereo unspecified) = -19.62
CCOCC(=O)N1C[C@@H]2COC[C@]2(c2nc(C)no2)C1 = 46.85

For every listed record, write down its Percent Effect.
1. CC(NCc1ccncc1)c1ccc(N2CCN(C)CC2)c(F)c1.Cl (stereo unspecified)
2. COC(=O)c1cc(NCC(=O)NC(N)=O)cc(C(F)(F)F)c1
3. CSc1cccc(CN(C)C(=O)c2ccc(C3CCCNC3)cc2)c1 (stereo unspecified)
4. CC(NCc1cnc(N2CCN(C)CC2)nc1)c1ccc(F)cc1 (stereo unspecified)
5. O=C1COc2c(cccc2C(=O)N2CCCC(n3cccn3)C2)N1 (stereo unspecified)

Result:
[-0.6983, 10.64, 52.27, 58.55, -19.69]

---

Test system: Leishmania donovani
protocol-description: Leishmania intramacrophage assay
Type: functional, organism-based
Set-up: scale not given: in the data most compounds retested in dose-response had high values
assay-setup: 30.3 µM; […]
Screen size: about 69,000 compounds; about 1,000 (1.4%) showed an effect of 50% or more. This is one part of a sample in which strong results are shown more often than they occur.
Short version: Percent Effect at least 10% is criterion met, less is criterion not met.

Below, 5 molecules whose answers are already recorded.
CCCN1CCC(NC(=O)Nc2ccc(OC)c(OC)c2)CC1 = criterion not met
CCCN1CCC(Nc2cc(-c3ccccc3)ccc2OC)CC1 = criterion met
Cl.Fc1cccc(CN2CCC(c3cc4ncccc4cn3)CC2)c1F = criterion met
CN(Cc1n[nH]c(=O)n1CCc1ccccc1F)S(C)(=O)=O = criterion met
Cc1nn(C)c(C)c1CN(C(=O)c1cc(Cl)c[nH]c1=O)C(C)C = criterion met

Request: Has `CCCN1CCC(NC(=O)c2csc(C)c2-c2ccccc2)CC1` a recorded Percent Effect greater than or equal to 10%?
Result: criterion met

Request: Has `Cl.Fc1ccc(F)c(CN2CCC(c3cc4ncccc4cn3)CC2)c1` a recorded Percent Effect greater than or equal to 10%?
Result: criterion met

Request: Has `CCCc1nc(C)c(C(=O)NCCn2ccnc2)s1` a recorded Percent Effect greater than or equal to 10%?
Result: criterion not met

Request: Has `Cn1cc(CN2CCc3onc(C(=O)Nc4cccnc4)c3C2)cn1` a recorded Percent Effect greater than or equal to 10%?
Result: criterion met

Request: Has `Cn1cccc1C(=O)N1CCC(c2nccn2Cc2ccncc2)CC1` a recorded Percent Effect greater than or equal to 10%?
Result: criterion not met

Request: Has `COc1ccc(CNC(=O)c2ccoc2CN2CCNC(=O)C2)cc1` a recorded Percent Effect greater than or equal to 10%?
Result: criterion not met

Request: Has `CC(=O)N(C)c1nc(CN2CCN(Cc3nccn3C)CC2)cs1` a recorded Percent Effect greater than or equal to 10%?
Result: criterion not met
